Target: T1, NLpoly11S
T1 chain: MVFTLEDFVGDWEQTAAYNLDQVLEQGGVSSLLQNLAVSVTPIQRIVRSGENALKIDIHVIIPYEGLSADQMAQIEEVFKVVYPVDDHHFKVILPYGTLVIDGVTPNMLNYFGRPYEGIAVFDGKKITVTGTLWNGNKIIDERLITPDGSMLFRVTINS
Assay: luminescence complementation titration, one-site specific binding fit
Use 40000 as the dividing line for Bmax, with the line itself on the 1 side and lower values as -1.

Quick check: does VEGYRLFKKAS (modifications not checked) [array2.56] have Bmax greater than or equal to 40000?
-1

Quick check: does VEGYRLFKEES (modifications not checked) [array2.63] have Bmax greater than or equal to 40000?
-1

Quick check: does VTGYRLFKKEL (modifications not checked) [array2.30] have Bmax greater than or equal to 40000?
1

Quick check: does VTGYRLFQKAL (modifications not checked) [array2.38] have Bmax greater than or equal to 40000?
1

Quick check: does VEGYRLFQKIS (modifications not checked) [array2.64] have Bmax greater than or equal to 40000?
-1

Quick check: does VEGYRLFQKEL (modifications not checked) [array2.93] have Bmax greater than or equal to 40000?
-1

Quick check: does VTGYRLFKKIS (modifications not checked) [array2.1] have Bmax greater than or equal to 40000?
1

Quick check: does VTGYRLFKEIS (modifications not checked) [array2.7] have Bmax greater than or equal to 40000?
-1
